target-system: SARS-CoV-2 full length spike (S) protein, wild type, expressed on the surface of CHO cells (SARS-CoV-2, UniProt P0DTC2 14-1273)
Recorded median fluorescence intensity, fold over isotype control, one value per entry.
# output: bare number, implied unit fold over isotype

Here are 2 binders together with their reported answers.
Please fill in: median fluorescence intensity, fold over isotype control reported for antibody 566 (antibody, V domains shown) VH: QVQLVQSGAEVKKPGASVKVSCKASGYTFTSYAMHWVRQAPGQRLEWMGWINAGNGNTKYSQKFQGRVTITRDTSASTAYMELSSLRSEDTAVYYCARDLGVAVTLHPADFDYWGQGTLVTVSS VL: QSVLTQPPSVSGAPGQRVTISCTGSSSNIGAGYDVHWYQQLPGTAPKLLIYDNSNRPSGVPDRFSGSKSGTSASLAITGLQAEDEADYYCQSYDSSLSAVVFGGGTKLTVL = 31.5

median fluorescence intensity, fold over isotype control reported for this binder antibody 565 (antibody, V domains shown) VH: EVQLVESGGGLVQPGGSLRLSCTASGFTLSDHYMDWVRQAPGKGLEWVARTRNKVNSYSTEYAASVKGRFSMSRDDSKNSLYLQMTRLQTDDTAVYYCARSLMILGARGASDYWGQGTLVTVSS VL: DIQMTQSPSTLSASAGDRVTITCRASQNIDSWLAWYQQHPGKAPNLLIYKASFLQSGVPSRFSGSGSGTEFTLTISSLQPDDFATYYCQQYNSYPVTFGQGTRLEIK : 1.11

Turning now to a further record.
For reference, reported median fluorescence intensity, fold over isotype control for antibody 564 (antibody, V domains shown) VH: QVHLVESGGGVVQPGKSLRLSCAASGFIFSSFGMHWVRQPPGKGLEWLAVVSYDGSVTKYSDSFEGRFTISRDNSKNTLYLQMDSLRPEDTAVYYCAKGQGTNLLHYWGQGILVTVSS VL: DVVLSQSPLSLPVTLGQPASISCRSSESLVYTDGDTYLHWFHQRPGQSPRRLIFKVSHRESGVPDRISGSGSGTDFTLKISRVEAEDVGVYYCMQGTHWPFTFGPGTKVDIK stands at 10.8
